- protocol.notes: gradient 5% acetonitrile 3 min, to 50% in 2 min, to 85% in 15 min, held 3 min, 100 µL/min
- run.parameters: column: Zorbax Extend-C18 2.1 x 50 mm; eluents: water / acetonitrile, 0.1% formic acid
Property: RP-LC retention time; scope: individual molecules
Write it as a number; the unit s goes unstated.

These recorded examples may help you get a feel for the data.
In [3]: df
Out[3]:
                                   molecule     reported_endpoint  unit_annotation  reported_measurement
0  CN(C)S(=O)(=O)c1ccc2c(c1)N(CC(=O)NCCC1=CCCCC1)C(=O)C1CCCCN21 (centres undefined)  RP-LC retention time                s                   996
1  O=C(NCCCc1ccccc1)C1CCCN(c2nccnc2Sc2ccccc2)C1 (centres undefined)  RP-LC retention time                s                  1090
2  CS(=O)(=O)N1CCC(OC2CCN(C(=O)Nc3ccccc3F)CC2)CC1  RP-LC retention time                s                   703

Next molecule, please.
Which measured RP-LC retention time value corresponds to "COc1cc(/C=C2\CCOC2=O)cc(OC)c1OC" ?
802
